Source: paper PMC9897767

Experiment: Pharmacokinetics of vonoprazan and metabolite M-I in rats with and without poziotinib pretreatment
Format: in vivo, Sprague-Dawley (SD) rats
Conditions: male, Sprague-Dawley, rat, serum, po, 10 mg/kg, vonoprazan, oral 10 mg/kg, control group (no poziotinib)
valueKind: Cmax (ng/mL)
Write down the numeric answer in ng/mL and omit the unit.

Value of Cmax reported for the compound CNCc1cc(-c2ccccc2F)n(S(=O)(=O)c2cccnc2)c1 is 5.69

###

Assay: Pharmacokinetics of vonoprazan and metabolite M-I in rats with and without poziotinib pretreatment
Format: in vivo, Sprague-Dawley (SD) rats
Conditions: male, Sprague-Dawley, rat, serum, po, 10 mg/kg, vonoprazan, oral 10 mg/kg, control group (no poziotinib), read-out: MRT(0-∞)
valueKind: MRT inf (h)
Answer format: numeric, h implied, no suffix.

Quick note, MRT inf for CNCc1cc(-c2ccccc2F)n(S(=O)(=O)c2cccnc2)c1 [vonoprazan] landed at 2.29

###

Assay: Pharmacokinetics of vonoprazan and metabolite M-I in rats with and without poziotinib pretreatment
Format: in vivo, Sprague-Dawley (SD) rats
Conditions: male, Sprague-Dawley, rat, serum, po, 10 mg/kg, vonoprazan, oral 10 mg/kg, control group (no poziotinib)
valueKind: half-life (h)
Only the number, expressed in h, is required.

// CNCc1cc(-c2ccccc2F)n(S(=O)(=O)c2cccnc2)c1 : half-life value = 1.25

###

Test: Pharmacokinetics of vonoprazan and metabolite M-I in rats with and without poziotinib pretreatment
Format: in vivo, Sprague-Dawley (SD) rats
Conditions: male, Sprague-Dawley, rat, serum, po, 10 mg/kg, vonoprazan, oral 10 mg/kg, poziotinib group (5 mg/kg oral pretreatment)
valueKind: half-life (h)
Your answer is read as h, so omit the unit and give the number.

The molecule listed as CNCc1cc(-c2ccccc2F)n(S(=O)(=O)c2cccnc2)c1 shows half-life equal to 2.84

###

Experiment: Pharmacokinetics of vonoprazan and metabolite M-I in rats with and without poziotinib pretreatment
Format: in vivo, Sprague-Dawley (SD) rats
Conditions: male, Sprague-Dawley, rat, serum, po, 10 mg/kg, vonoprazan, oral 10 mg/kg, poziotinib group (5 mg/kg oral pretreatment), read-out: MRT(0-t)
valueKind: MRT last (h)
Express it in h; write the number only.

MRT last in this record for CNCc1cc(-c2ccccc2F)n(S(=O)(=O)c2cccnc2)c1 : 5.26

###

Target: metabolism of vonoprazan in rat liver microsomes
Assay: Inhibition of vonoprazan metabolism by poziotinib in rat liver microsomes
Type: in vitro ADME
Conditions: Lineweaver-Burk, slope of primary plot, read-out: inhibitory constant Ki
valueKind: Ki
Returns: string containing the numeric result and its unit.

# Ki of C=CC(=O)N1CCC(Oc2cc3c(Nc4ccc(Cl)c(Cl)c4F)ncnc3cc2OC)CC1 [poziotinib] = 574 nM

###

Experiment: Pharmacokinetics of vonoprazan and metabolite M-I in rats with and without poziotinib pretreatment
Type: in vivo, Sprague-Dawley (SD) rats
Settings: male, Sprague-Dawley, rat, serum, po, 10 mg/kg, vonoprazan, 10 mg/kg gavage, poziotinib pretreatment 5 mg/kg, read-out: CLz/F (converted)
valueKind: CL/F

CL/F measured on CNCc1cc(-c2ccccc2F)n(S(=O)(=O)c2cccnc2)c1 = 431 mL/min/kg

###

Experiment: Pharmacokinetics of vonoprazan and metabolite M-I in rats with and without poziotinib pretreatment
Type: in vivo, Sprague-Dawley (SD) rats
Conditions: male, Sprague-Dawley, rat, serum, po, 10 mg/kg, vonoprazan, oral 10 mg/kg, poziotinib group (5 mg/kg oral pretreatment), read-out: Vz/F
valueKind: Vd/F (L/kg)
Please respond with the number in L/kg and leave the unit unwritten.

Vd/F for CNCc1cc(-c2ccccc2F)n(S(=O)(=O)c2cccnc2)c1 is 90.5
